# Test system: K562 CRISPRi cells
# runDescription: Constant region variant library pooled growth screen, K562
# Type: cell-based, human
# condition: sgRNA constant region variants; activity relative to the original, un-modified constant region cr995
Would you mind telling me the reported Mean relative activity of each entry?
Field format: numeric only.

Ask: Recorded Mean relative activity for cr717 (nucleic acid, listed as DNA, chemistry not fully specified) guide: GTTTAAGAGCTAAGCTGGAAACAGCATAGCAAGTTTAAATAAGGTTAATCCGTTATCAGCTTGAAAAAGCGGCACCGAGTCGGTGCT , please?
Reply: 1.056

Ask: Recorded Mean relative activity for cr481 (nucleic acid, listed as DNA, chemistry not fully specified) guide: GTTTAAGAGCTAAGCTGGAAACAGCATAGCAAGTTTAAATAAGGGTACTCCGTTATCAACTTGAAAAAGTGACACCGAGTCGGTGTT , please?
Reply: 0.5936

Ask: Recorded Mean relative activity for cr458 (nucleic acid, listed as DNA, chemistry not fully specified) guide: GTTTAAGAGCTAAGCTGGAAACAGCATAGCAAGTTTAAATAAGGCTAGTCCGTTATCAACTTGAGAAAGTCGCACCGAGTCGGTGCT , please?
Reply: 0.5958

Ask: Recorded Mean relative activity for cr470 (nucleic acid, listed as DNA, chemistry not fully specified) guide: GTTTAAGAGCTAAGCTGGAAACATCATAGCAAGTTTAAATAAGGCTAGTCCGTTATCAACTTGAAAAAGTGGCACCGAGTCGGTGCT , please?
Reply: 0.809

Ask: Recorded Mean relative activity for cr871 (nucleic acid, listed as DNA, chemistry not fully specified) guide: GTTTAAGAGCTAAGCTGGAAACAGCATAGCAAGTTTAAATAAGCCTAGTGCGTTATCAACTTGAAAAAGTGGCACCGAGTCGGTGCT , please?
Reply: 0.8313

Ask: Recorded Mean relative activity for cr117 (nucleic acid, listed as DNA, chemistry not fully specified) guide: GTTTAAGAGCTAAGCTGGAAACAGCATAGCAAGTTTAAATAAGGCTAGTCCGTTATCAACTTGGAAAAGTGGCACCGGGTCGGTGCT , please?
Reply: 0.6966

Ask: Recorded Mean relative activity for cr465 (nucleic acid, listed as DNA, chemistry not fully specified) guide: GTTTAAGAGCTAAGCTGGAAACAGCATAGCAAGCTTAAATAAGGATATTCCGTTATCAACTTGAAAAAGTGGCACCGAGTCGGTGCT , please?
Reply: 0.04864

Sourced from patent US20220259593A1
